- Target desc: Neuromedin-B receptor (Rattus norvegicus)
- Sequence (P24053 whole entry): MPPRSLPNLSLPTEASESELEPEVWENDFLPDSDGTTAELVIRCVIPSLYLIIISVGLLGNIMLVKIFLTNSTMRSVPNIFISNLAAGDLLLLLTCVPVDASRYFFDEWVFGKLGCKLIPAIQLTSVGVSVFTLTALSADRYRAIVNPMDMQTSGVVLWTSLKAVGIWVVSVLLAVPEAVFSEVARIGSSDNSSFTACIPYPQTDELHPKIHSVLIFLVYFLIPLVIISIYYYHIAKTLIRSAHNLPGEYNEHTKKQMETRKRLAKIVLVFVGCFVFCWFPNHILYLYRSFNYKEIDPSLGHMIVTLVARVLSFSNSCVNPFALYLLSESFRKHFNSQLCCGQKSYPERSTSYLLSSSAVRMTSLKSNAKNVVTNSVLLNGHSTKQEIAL
- Experimental details: Displacement of [125I]-NMB from NMB receptor in rat C6 cells
Reported values of IC50 for individual entries
# number only, unit nM dropped from output

Please review the entries below; each comes with its answer.
>  <Line notation>
CSCC[C@H](NC(=O)[C@H](CC(C)C)NC(=O)[C@H](Cc1cnc[nH]1)NC(=O)CNC(=O)[C@@H](NC(=O)[C@H](C)NC(=O)[C@H](Cc1c[nH]c2ccccc12)NC(=O)[C@H](CCC(N)=O)NC(=O)[C@H](CCC(=O)O)NC(=O)[C@H](CCCCN)NC(=O)CNC(=O)[C@H](CSCNC(C)=O)NC(=O)[C@H](CO)NC(=O)CN(C)C)C(C)C)C(N)=O

>  <IC50 (nM)>
60

$$$$
>  <Line notation>
CSCC[C@H](NC(=O)[C@H](CC(C)C)NC(=O)[C@H](Cc1cnc[nH]1)NC(=O)CNC(=O)[C@@H](NC(=O)[C@H](C)NC(=O)[C@H](Cc1c[nH]c2ccccc12)NC(=O)[C@H](CCC(N)=O)NC(=O)[C@H](CC(N)=O)NC(=O)CNC(=O)[C@H](Cc1ccc(O)cc1)NC(=O)[C@H](CCCNC(=N)N)NC(=O)[C@H](CCC(N)=O)NC(=O)[C@H](CCC(=O)O)NC(=O)[C@H]1CCCN1)C(C)C)C(N)=O

>  <IC50 (nM)>
3.36

$$$$

Identify measured IC50 associated with CSCC[C@H](NC(=O)[C@H](CC(C)C)NC(=O)[C@H](Cc1cnc[nH]1)NC(=O)CNC(=O)[C@@H](NC(=O)[C@H](C)NC(=O)[C@H](Cc1c[nH]c2ccccc12)NC(=O)[C@H](CCC(N)=O)NC(=O)[C@H]1CC[C@H](CNC(=O)[C@H]2CC[C@H](CNC(=O)CN3CCN(CC(=O)O)CCN(CC(=O)O)CCN(CC(=O)O)CC3)CC2)CC1)C(C)C)C(N)=O
0.3

* * *

- Target desc: Gastrin-releasing peptide receptor (Homo sapiens)
- Experimental details: Displacement of [125I]-BBN from GRPR in human PC3 cells after 1 hr by compuGamma counting or microplate scintillation counting method
- Type: cell-based, PC-3
pIC50: −log10 of the molar value. Where a SMILES comes first, the peptide text is derived from it. The star is where a group is joined. Me2Gly = CN(C)CC(=O)*; Acm = CC(=O)NC*
Reported values of pIC50 for individual entries

>  <Compound>
CSCC[C@H](NC(=O)[C@H](CC(C)C)NC(=O)[C@H](Cc1cnc[nH]1)NC(=O)CNC(=O)[C@@H](NC(=O)[C@H](C)NC(=O)[C@H](Cc1c[nH]c2ccccc12)NC(=O)[C@H](CCC(N)=O)NC(=O)[C@H](CCCNC(=N)N)NC(=O)[C@H](CCCCNC(=O)CNC(=O)CN1CCN(CC(=O)O)CCN(CC(=O)O)CCN(CC(=O)O)CC1)NC(=O)COCCOCCOCC(=O)N[C@H]1CC[C@]2(C)[C@H]3C[C@H](O)[C@]4(C)[C@@H]([C@H](C)CCC(=O)O)CC[C@H]4[C@@H]3CC[C@]2(C)C1)C(C)C)C(N)=O

>  <Measured metric>
pIC50

>  <Reported>
< 7.30

$$$$
>  <Compound>
CSCC[C@H](NC(=O)[C@H](CC(C)C)NC(=O)[C@H](Cc1cnc[nH]1)NC(=O)CNC(=O)[C@@H](NC(=O)[C@H](C)NC(=O)[C@H](Cc1c[nH]c2ccccc12)NC(=O)[C@H](CCC(N)=O)NC(=O)CN1CN(c2ccccc2)C2(CCN(C(=O)CN3CCN(CC(=O)O)CCN(CC(=O)O)CCN(CC(=O)O)CC3)CC2)C1=O)C(C)C)C(N)=O

>  <Measured metric>
pIC50

>  <Reported>
< 7.30

$$$$
>  <Compound>
CSCC[C@H](NC(=O)[C@H](CC(C)C)NC(=O)[C@H](Cc1cnc[nH]1)NC(=O)CNC(=O)[C@@H](NC(=O)[C@H](C)NC(=O)[C@H](Cc1c[nH]c2ccccc12)NC(=O)[C@H](CCC(N)=O)NC(=O)[C@H](CCCCN)NC(=O)[C@H](CO)NC(=O)CNC(=O)[C@H](CSCNC(C)=O)NC(=O)[C@H](CO)NC(=O)CN(C)C)C(C)C)C(N)=O (Me2Gly-SC(Acm)GSKQWAVGHLM-NH2)

>  <Measured metric>
pIC50

>  <Reported>
8.70

$$$$

Identify measured pIC50 associated with CSCC[C@H](NC(=O)[C@H](CC(C)C)NC(=O)[C@H](Cc1cnc[nH]1)NC(=O)CNC(=O)[C@@H](NC(=O)[C@H](C)NC(=O)[C@H](Cc1c[nH]c2ccccc12)NC(=O)[C@H](CCC(N)=O)NC(=O)CN1CCN(C(=O)CN2CCN(CC(=O)O)CCN(CC(=O)O)CCN(CC(=O)O)CC2)CC1)C(C)C)C(N)=O
< 7.30

Identify measured pIC50 associated with CSCC[C@H](NC(=O)[C@H](CC(C)C)NC(=O)[C@H](Cc1cnc[nH]1)NC(=O)CNC(=O)[C@@H](NC(=O)[C@H](C)NC(=O)[C@H](Cc1c[nH]c2ccccc12)NC(=O)[C@H](CCC(N)=O)NC(=O)[C@H](CCCNC(=N)N)NC(=O)[C@H](CCCCNC(=O)COCCOCCOCC(=O)N[C@H]1CC[C@]2(C)[C@H]3C[C@H](O)[C@]4(C)[C@@H]([C@H](C)CCC(=O)O)CC[C@H]4[C@@H]3CC[C@]2(C)C1)NC(=O)CNC(=O)CN1CCN(CC(=O)O)CCN(CC(=O)O)CCN(CC(=O)O)CC1)C(C)C)C(N)=O
< 7.30

* * *

- Target desc: Gastrin-releasing peptide receptor (Homo sapiens, UniProt P30550)
- Sequence (P30550 whole entry): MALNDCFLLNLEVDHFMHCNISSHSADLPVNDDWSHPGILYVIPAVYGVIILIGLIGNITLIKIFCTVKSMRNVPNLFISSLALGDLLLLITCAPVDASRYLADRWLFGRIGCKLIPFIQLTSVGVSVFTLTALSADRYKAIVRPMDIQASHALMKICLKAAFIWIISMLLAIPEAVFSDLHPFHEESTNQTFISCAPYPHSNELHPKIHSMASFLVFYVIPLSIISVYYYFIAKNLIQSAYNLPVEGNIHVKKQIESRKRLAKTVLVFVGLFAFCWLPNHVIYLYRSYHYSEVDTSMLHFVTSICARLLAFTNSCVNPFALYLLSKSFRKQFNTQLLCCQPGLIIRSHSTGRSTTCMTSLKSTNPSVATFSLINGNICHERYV
- Experimental details: Displacement of [125I]-BBN from GRPR in human PC3 cells after 1 hr by compuGamma counting or microplate scintillation counting method
- Assay type: cell-based, PC-3
Measured metric: IC50

Please review the entries below; each comes with its answer.
>  <Molecule>
CSCC[C@H](NC(=O)[C@H](CC(C)C)NC(=O)[C@H](Cc1cnc[nH]1)NC(=O)CNC(=O)[C@@H](NC(=O)[C@H](C)NC(=O)[C@H](Cc1c[nH]c2ccccc12)NC(=O)[C@H](CCC(N)=O)NC(=O)Cn1cnc2ccc(N3CCN(C(=O)CN4CCN(CC(=O)O)CCN(CC(=O)O)CCN(CC(=O)O)CC4)CC3)cc2c1=O)C(C)C)C(N)=O

>  <Reported>
> 0.05 µM

$$$$
>  <Molecule>
CSCC[C@H](NC(=O)[C@H](CC(C)C)NC(=O)[C@H](Cc1cnc[nH]1)NC(=O)CNC(=O)[C@@H](NC(=O)[C@H](C)NC(=O)[C@@H](N)Cc1c[nH]c2ccccc12)C(C)C)C(N)=O

>  <Reported>
> 0.8 µM

$$$$

Identify measured IC50 associated with CSCC[C@H](NC(=O)[C@H](CC(C)C)NC(=O)[C@H](Cc1cnc[nH]1)NC(=O)CNC(=O)[C@@H](NC(=O)[C@H](C)NC(=O)[C@H](Cc1c[nH]c2ccccc12)NC(=O)[C@H](CCC(N)=O)NC(=O)[C@@H]1CSC2CC[C@H](NC(=O)CN3CCN(CC(=O)O)CCN(CC(=O)O)CCN(CC(=O)O)CC3)C(=O)N21)C(C)C)C(N)=O (stereo partly specified)
> 0.05 µM

Identify measured IC50 associated with CSCC[C@H](NC(=O)[C@H](CC(C)C)NC(=O)[C@H](Cc1cnc[nH]1)NC(=O)CNC(=O)[C@@H](NC(=O)[C@H](C)NC(=O)[C@H](Cc1c[nH]c2ccccc12)NC(=O)[C@H](CCC(N)=O)NC(=O)[C@@H]1Cc2cccc3c2N1C(=O)[C@@H](NC(=O)CN1CCN(CC(=O)O)CCN(CC(=O)O)CCN(CC(=O)O)CC1)CC3)C(C)C)C(N)=O
> 0.05 µM

Identify measured IC50 associated with CSCC[C@H](NC(=O)[C@H](CC(C)C)NC(=O)[C@H](Cc1cnc[nH]1)NC(=O)CNC(=O)[C@@H](NC(=O)[C@H](C)NC(=O)[C@H](Cc1c[nH]c2ccccc12)NC(=O)[C@H](CCC(N)=O)NC(=O)C[C@@H]1NC(=O)C2C[C@H](NC(=O)CN3CCN(CC(=O)O)CCN(CC(=O)O)CCN(CC(=O)O)CC3)CN2C1=O)C(C)C)C(N)=O (stereo partly specified)
> 0.05 µM

Identify measured IC50 associated with CSCC[C@H](NC(=O)[C@H](CC(C)C)NC(=O)[C@H](Cc1cnc[nH]1)NC(=O)CNC(=O)[C@@H](NC(=O)[C@H](C)NC(=O)[C@H](Cc1c[nH]c2ccccc12)NC(=O)[C@H](CCC(N)=O)NC(=O)[C@H](CC(N)=O)NC(=O)CNC(=O)[C@H](Cc1ccc(O)cc1)NC(=O)[C@H](CCCNC(=N)N)NC(=O)[C@H](CCC(N)=O)NC(=O)[C@H](CCC(=O)O)NC(=O)[C@H]1CCCN1)C(C)C)C(N)=O
0.0022 µM

Data credit: ChEMBL document CHEMBL3879899
